Assay: in vitro
Settings: both, human, microsomes, pH 7.4
Protocol: One part of 10 mM DMSO compound stock was mixed with 4 parts of acetonitrile to make 2 mM diluted compound stock in DMSO and acetonitrile. […] 200 µL supernatant was transferred to a 96-well plate and analyzed by ultra-performance liquid chromatography-mass spectrometry (UPLC-MS) (Waters Inc.). The compounds and internal standard were detected by selected ion recording (SIR).

Molecule: NC(=O)N1c2ccccc2C=Cc2ccccc21 [carbamazepine]
half-life at 20 μM: > 4 h

###

experiment: Solubility in aqueous buffer; format: physicochemical; conditions: pH 7.4, aqueous buffer, kinetic from dmso stock

Structure notation: CCCSc1ccc2nc(NC(=O)OC)[nH]c2c1
solubility at 18 h: 3.8 µM

Structure notation: C[C@H]1O[C@@H](O[C@H]2[C@@H](O)C[C@H](O[C@H]3[C@@H](O)C[C@H](O[C@H]4CC[C@@]5(C)[C@H](CC[C@@H]6[C@@H]5C[C@@H](O)[C@]5(C)[C@@H](C7=CC(=O)OC7)CC[C@]65O)C4)O[C@@H]3C)O[C@@H]2C)C[C@H](O)[C@@H]1O
solubility at 18 h: 80.3 µM

###

assay: Single oral dose pharmacokinetic study in mice; format: in vivo, mouse; conditions: single oral gavage, 50 mg/kg, plasma
Assay readout: Cmax (µM)

Structure notation: Cc1ccc(-c2nc3ccccc3s2)cc1NC(=O)c1cc([N+](=O)[O-])c(N2CCN(C)CC2)cc1Cl
Reported: 6.5

###

assay: Liver microsomal stability, human; conditions: both, liver microsomes, pH 7.4
# half-life at 20 μM per record follows

Structure notation: Cc1ccc(-c2nc3ccccc3s2)cc1NC(=O)c1cc([N+](=O)[O-])c(N2CCN(C)CC2)cc1Cl
half-life at 20 μM: > 4 h
--
Structure notation: COc1ccc(-c2c(C(F)(F)F)oc3c(CN4CCN(C)CC4)c(O)ccc3c2=O)cc1OC
half-life at 20 μM: > 4 h

###

Assay: in vitro
Settings: simulated gi fluid, pH 1
Procedure: Compound stocks were 10 mM in DMSO. The internal standard was 5 µM warfarin in methanol. […] 1 ml SGF was added to a 1.1 ml 96-well storage plate and mixed well with 10 µl compound stock. The plate was then incubated at 37 °C and shaken at 60 rpm. […] At each time point, 100 µl was removed to a 1 ml storage plate and 300 µl internal standard was added to quench the reaction. […] The compound was detected by SIR and quantification was based on peak area of test compound and the internal standard.

Structure notation: CCCSc1ccc2nc(NC(=O)OC)[nH]c2c1
half-life at 99 µM: > 24 h
--
Structure notation: C[C@H]1O[C@@H](O[C@H]2[C@@H](O)C[C@H](O[C@H]3[C@@H](O)C[C@H](O[C@H]4CC[C@@]5(C)[C@H](CC[C@@H]6[C@@H]5C[C@@H](O)[C@]5(C)[C@@H](C7=CC(=O)OC7)CC[C@]65O)C4)O[C@@H]3C)O[C@@H]2C)C[C@H](O)[C@@H]1O
half-life at 99 µM: > 24 h

###

Below: a set of entries, each annotated with reported Papp B→A at 2 h, 10 μmol/L.
assay: Caco-2 permeability assay; type: in vitro ADME; details: human, Caco-2; pH 7.4; mean ± standard deviation of three runs; read-out: Caco-2 (B→A) permeability coefficient
Assay readout: Papp B→A at 2 h, 10 μmol/L (×10⁻⁶ cm/s)

Compound: COc1ccc(-c2c(C(F)(F)F)oc3c(CN4CCN(C)CC4)c(O)ccc3c2=O)cc1OC
Assay readout: Papp B→A at 2 h, 10 μmol/L
Value unit: ×10⁻⁶ cm/s
Reported: 39
--
Compound: NC(=O)N1c2ccccc2C=Cc2ccccc21 [carbamazepine]
Assay readout: Papp B→A at 2 h, 10 μmol/L
Value unit: ×10⁻⁶ cm/s
Reported: 56.5
--
Compound: Cc1ccc(-c2nc3ccccc3s2)cc1NC(=O)c1cc([N+](=O)[O-])c(N2CCN(C)CC2)cc1Cl
Assay readout: Papp B→A at 2 h, 10 μmol/L
Value unit: ×10⁻⁶ cm/s
Reported: 32.2
--
Compound: C[C@H]1O[C@@H](O[C@H]2[C@@H](O)C[C@H](O[C@H]3[C@@H](O)C[C@H](O[C@H]4CC[C@@]5(C)[C@H](CC[C@@H]6[C@@H]5C[C@@H](O)[C@]5(C)[C@@H](C7=CC(=O)OC7)CC[C@]65O)C4)O[C@@H]3C)O[C@@H]2C)C[C@H](O)[C@@H]1O
Assay readout: Papp B→A at 2 h, 10 μmol/L
Value unit: ×10⁻⁶ cm/s
Reported: 27.1
